All values here come from the supplement of paper PMC7125110.

Assignment: determine reported self-cleavage kobs at 10000 uM GlcN6P for the given variants.
B1: glmS ribozyme (parent)
chain: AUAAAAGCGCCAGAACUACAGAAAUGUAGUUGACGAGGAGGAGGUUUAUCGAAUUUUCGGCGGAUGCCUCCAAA

variants of: B1; assay: self-cleavage kobs at 10000 uM GlcN6P; higher = faster cleavage; RNA array; details: with glucosamine-6-phosphate
Fewer inactive variants are shown than the library holds.
Your answer should be a plain number; it is taken to be in s⁻¹.

// returns reported self-cleavage kobs at 10000 uM GlcN6P for input U54C U69A 0.000105

Need self-cleavage kobs at 10000 uM GlcN6P of C16A C67A , thanks. 0.000248

Could you tell me which self-cleavage kobs at 10000 uM GlcN6P is on file for A39C U45C ? 0.000408

So what's the measured self-cleavage kobs at 10000 uM GlcN6P for this one? G38U A53U U69G 0.000134

Sample U45G G66C — what was its self-cleavage kobs at 10000 uM GlcN6P? 0.00369

Would you kindly share the measured self-cleavage kobs at 10000 uM GlcN6P for A12U G44A A52U ? 4.81e-05

Quick check: self-cleavage kobs at 10000 uM GlcN6P of A15C G66U C67G ? 0.000165

Please give the measured self-cleavage kobs at 10000 uM GlcN6P for this variant: G13A C50G G66U 6.48e-05

Which self-cleavage kobs at 10000 uM GlcN6P reading was recorded for the variant A53G C61U C68G ? 4.37e-05

For G44U C70U , what is its reported self-cleavage kobs at 10000 uM GlcN6P? 3.29e-05

What value of self-cleavage kobs at 10000 uM GlcN6P has been reported for the following variant? G29C U54G 0.000918

Any idea what self-cleavage kobs at 10000 uM GlcN6P was measured for A12U G40C ? 0.00509
